Please consider the recorded IC50 for MAP kinase-interacting serine/threonine-protein kinase 1 (Homo sapiens, UniProt Q9BUB5) in what follows.
Express your answer in nM, writing the number without its unit.

* CN1CCc2c(sc3ncnc(Nc4ccc(Cl)cc4F)c23)C1 | 1850
* CN1CCc2c(sc3ncnc(Nc4cccc(Cl)c4)c23)C1 | 1870
* COc1ccc(S(=O)(=O)N2CCc3c(sc4ncnc(Nc5ccc(Cl)cc5)c34)C2)cc1 | 1220
* O=[N+]([O-])c1ccccc1S(=O)(=O)N1CCc2c(sc3ncnc(Nc4ccc(F)cc4F)c23)C1 | 1080
* Brc1ccc(Nc2ncnc3sc4c(c23)CCN(Cc2ccccc2)C4)cc1 | 1690

Prompt line: Specify the recorded IC50 for O=S(=O)(c1ccc(F)cc1F)N1CCc2c(sc3ncnc(Nc4ccc(Br)cc4)c23)C1 , system: MAP kinase-interacting serine/threonine-protein kinase 1 (Homo sapiens, UniProt Q9BUB5).
Sequence (Q9BUB5 whole entry): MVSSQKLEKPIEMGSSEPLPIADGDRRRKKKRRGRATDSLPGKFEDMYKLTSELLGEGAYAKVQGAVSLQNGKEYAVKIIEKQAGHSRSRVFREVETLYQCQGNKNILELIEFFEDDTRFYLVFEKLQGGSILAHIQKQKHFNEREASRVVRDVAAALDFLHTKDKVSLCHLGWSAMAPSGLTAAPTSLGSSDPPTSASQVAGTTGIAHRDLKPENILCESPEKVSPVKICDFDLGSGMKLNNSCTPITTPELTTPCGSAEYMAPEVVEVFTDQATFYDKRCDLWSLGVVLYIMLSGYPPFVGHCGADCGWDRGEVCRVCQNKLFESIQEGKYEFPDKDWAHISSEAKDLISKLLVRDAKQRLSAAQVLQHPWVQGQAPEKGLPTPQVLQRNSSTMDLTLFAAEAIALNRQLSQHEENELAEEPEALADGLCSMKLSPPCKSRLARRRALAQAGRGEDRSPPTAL
Response line: 1730

Prompt line: Specify the recorded IC50 for O=S(=O)(c1cccs1)N1CCc2c(sc3ncnc(Nc4cccc(F)c4)c23)C1 , system: MAP kinase-interacting serine/threonine-protein kinase 1 (Homo sapiens, UniProt Q9BUB5).
Response line: 1500

Prompt line: Specify the recorded IC50 for COc1ccc(S(=O)(=O)N2CCc3c(sc4ncnc(Nc5cccc(OC)c5)c34)C2)cc1 , system: MAP kinase-interacting serine/threonine-protein kinase 1 (Homo sapiens, UniProt Q9BUB5).
Response line: 2140

Prompt line: Specify the recorded IC50 for Fc1cccc(Nc2ncnc3sc4c(c23)CCN(Cc2ccccc2)C4)c1 , system: MAP kinase-interacting serine/threonine-protein kinase 1 (Homo sapiens, UniProt Q9BUB5).
Response line: 2080

Prompt line: Specify the recorded IC50 for Fc1ccc(Nc2ncnc3sc4c(c23)CCN(Cc2ccccc2)C4)c(F)c1 , system: MAP kinase-interacting serine/threonine-protein kinase 1 (Homo sapiens, UniProt Q9BUB5).
Response line: 1100

Prompt line: Specify the recorded IC50 for Cc1cccc(Nc2ncnc3sc4c(c23)CCCC4)c1 , system: MAP kinase-interacting serine/threonine-protein kinase 1 (Homo sapiens, UniProt Q9BUB5).
Response line: 1790

Prompt line: Specify the recorded IC50 for CC(C)(C)OC(=O)N1CCc2c(sc3ncnc(Nc4ccc(Cl)cc4)c23)C1 , system: MAP kinase-interacting serine/threonine-protein kinase 1 (Homo sapiens, UniProt Q9BUB5).
Response line: 2240

Prompt line: Specify the recorded IC50 for Clc1cccc(Nc2ncnc3sc4c(c23)CCN(Cc2ccccc2)C4)c1 , system: MAP kinase-interacting serine/threonine-protein kinase 1 (Homo sapiens, UniProt Q9BUB5).
Response line: 2290

Prompt line: Specify the recorded IC50 for COc1ccc(S(=O)(=O)N2CCc3c(sc4ncnc(Nc5ccc(Br)cc5)c34)C2)cc1 , system: MAP kinase-interacting serine/threonine-protein kinase 1 (Homo sapiens, UniProt Q9BUB5).
Response line: 1070

Prompt line: Specify the recorded IC50 for Cc1ccc(Nc2ncnc3sc4c(c23)CCN(S(=O)(=O)c2cccs2)C4)c(Br)c1 , system: MAP kinase-interacting serine/threonine-protein kinase 1 (Homo sapiens, UniProt Q9BUB5).
Response line: 1560

====

Please consider the recorded IC50 for MAP kinase-interacting serine/threonine-protein kinase 1 (Homo sapiens, UniProt Q9BUB5) in what follows.

Below are worked cases with known answers.
• Cc1ccc(Nc2ncnc3sc4c(c23)CCN(C)C4)c(Br)c1 = 1650 nM
• Cc1cccc(Nc2ncnc3sc4c(c23)CCN(C)C4)c1 = 2220 nM
• Brc1ccc(Nc2ncnc3sc4c(c23)CCCC4)cc1 = 1510 nM
• COc1ccc(S(=O)(=O)N2CCc3c(sc4ncnc(Nc5ccc(F)cc5Br)c34)C2)cc1 = 1000 nM
• COc1cccc(Nc2ncnc3sc4c(c23)CCN(Cc2ccccc2)C4)c1 = 1920 nM

Prompt line: Answer with the recorded IC50 of CN1CCc2c(sc3ncnc(Nc4ccc(Cl)cc4)c23)C1 only.
Response line: 1820 nM
